FYI, the data here is from patent US20230293629A1.

Consider the following compounds; for each one, report its solubility.
procedure.details: Qualitative solubility of peptides in 0.5 N saline, pH 6.5
Where a SMILES comes first, the peptide text is derived from it. The star is where a group is joined. Myristoyl = CCCCCCCCCCCCCC(=O)*

[Q] Report solubility for CCCCCCCCCCCCCC(=O)NCC(=O)N[C@@H](C)C(=O)N[C@@H](CCC(N)=O)C(=O)N[C@@H](Cc1ccccc1)C(=O)N[C@@H](CO)C(=O)N[C@@H](CCCCN)C(=O)N[C@H](C(=O)N[C@@H](C)C(=O)N[C@@H](C)C(=O)N[C@@H](CCCCN)C(=O)NCC(=O)N[C@@H](CCC(=O)O)C(=O)O)[C@@H](C)O [MA-GAQFSKTAAKGE, GAQFSKTAAKGE] (Myristoyl-GAQFSKTAAKGE-OH; C-terminus assumed) please.
[A] > 2000 µg/mL

[Q] Also, CCCCCCCCCCCCCC(=O)NCC(=O)N[C@@H](C)C(=O)N[C@@H](CCC(N)=O)C(=O)N[C@@H](Cc1ccccc1)C(=O)N[C@@H](CO)C(=O)N[C@@H](CCCCN)C(=O)N[C@H](C(=O)N[C@@H](C)C(=O)N[C@@H](C)C(=O)N[C@@H](CCCCN)C(=O)O)[C@@H](C)O [MA-GAQFSKTAAK, GAQFSKTAAK] (Myristoyl-GAQFSKTAAK-OH; C-terminus assumed) please.
[A] > 10000 µg/mL

[Q] Also, CCCCCCCCCCCCCC(=O)N[C@@H](C)C(=O)N[C@@H](CCCCN)C(=O)NCC(=O)N[C@@H](CCC(=O)O)C(=O)N[C@@H](C)C(=O)N[C@@H](C)C(=O)N[C@@H](C)C(=O)N[C@@H](CCC(=O)O)C(=O)N[C@@H](CCCNC(=N)N)C(=O)N1CCC[C@H]1C(=O)NCC(=O)N[C@@H](CCC(=O)O)C(=O)N[C@@H](C)C(=O)N[C@@H](C)C(=O)N[C@H](C(=O)N[C@@H](C)C(=O)O)C(C)C [MA-AKGEAAAERPGEAAVA, AKGEAAAERPGEAAVA] (Myristoyl-AKGEAAAERPGEAAVA-OH; C-terminus assumed) please.
[A] > 80000 µg/mL

###

procedure.details: Qualitative solubility of peptides in 0.5 N saline, pH 6.5
Where a SMILES comes first, the peptide text is derived from it. The star is where a group is joined. Myristoyl = CCCCCCCCCCCCCC(=O)*
reported.property: solubility

[Q] Report solubility for CCCCCCCCCCCCCC(=O)N[C@@H](C)C(=O)N[C@@H](CCCCN)C(=O)NCC(=O)N[C@@H](CCC(=O)O)C(=O)O [MA-AKGE, AKGE] (Myristoyl-AKGE-OH; C-terminus assumed) please.
[A] < 1 mg/mL

[Q] Also, CCCCCCCCCCCCCC(=O)N[C@@H](C)C(=O)N[C@@H](C)C(=O)N[C@@H](C)C(=O)N[C@@H](CCC(=O)O)C(=O)N[C@@H](CCCNC(=N)N)C(=O)N1CCC[C@H]1C(=O)NCC(=O)N[C@@H](CCC(=O)O)C(=O)N[C@@H](C)C(=O)N[C@@H](C)C(=O)N[C@H](C(=O)N[C@@H](C)C(=O)O)C(C)C [MA-AAAERPGEAAVA, AAAERPGEAAVA] (Myristoyl-AAAERPGEAAVA-OH; C-terminus assumed) please.
[A] < 20 mg/mL

[Q] Also, CCCCCCCCCCCCCC(=O)N[C@H](C(=O)N[C@@H](C)C(=O)N[C@@H](C)C(=O)N[C@@H](CCCCN)C(=O)NCC(=O)N[C@@H](CCC(=O)O)C(=O)N[C@@H](C)C(=O)N[C@@H](C)C(=O)O)[C@@H](C)O [MA-TAAKGEAA, TAAKGEAA] (Myristoyl-TAAKGEAA-OH; C-terminus assumed) please.
[A] < 1 mg/mL

[Q] Also, CC(=O)N[C@@H](C)C(=O)N[C@@H](CCCCN)C(=O)NCC(=O)N[C@@H](CCC(=O)O)C(N)=O [Ac-AKGE-NH2, AKGE] (Ac-AKGE-NH2) please.
[A] > 200 mg/mL

[Q] Also, CCCCCCCCCCCCCC(=O)N[C@@H](C)C(=O)N[C@@H](C)C(=O)N[C@@H](CCCCN)C(=O)NCC(=O)N[C@@H](CCC(=O)O)C(=O)N[C@@H](C)C(=O)O [MA-AAKGEA, AAKGEA] (Myristoyl-AAKGEA-OH; C-terminus assumed) please.
[A] < 1 mg/mL

[Q] Also, CC(=O)N[C@@H](C)C(=O)N[C@@H](C)C(=O)NCC(=O)N[C@@H](CCC(=O)O)C(=O)O [Ac-AAGE, AAGE] (Ac-AAGE-OH; C-terminus assumed) please.
[A] > 200 mg/mL

###

Test system: HL-60 clone 15 cells
procedure.details: PMA-stimulated EPO release from HL-60 clone 15 cells
Type: cell-based, human
assay.conditions: 50 μM test peptide, two hour incubation with 100 nM PMA; HL-60 clone 15 cells
Where a SMILES comes first, the peptide text is derived from it. The star is where a group is joined. Myristoyl = CCCCCCCCCCCCCC(=O)*
reported.property: % Inhibition EPO (%)
Hi! Could you send only the number? It should be in %, unit omitted.

[Q] Any idea what % Inhibition EPO came out for CCCCCCCCCCCCCC(=O)N[C@@H](C)C(=O)N[C@@H](CCCCN)C(=O)NCC(=O)N[C@@H](CCC(=O)O)C(=O)N[C@@H](C)C(=O)N[C@@H](C)C(=O)N[C@@H](C)C(=O)N[C@@H](CCC(=O)O)C(=O)N[C@@H](CCCNC(=N)N)C(=O)N1CCC[C@H]1C(=O)NCC(=O)N[C@@H](CCC(=O)O)C(=O)N[C@@H](C)C(=O)N[C@@H](C)C(=O)N[C@H](C(=O)N[C@@H](C)C(=O)O)C(C)C [MA-AKGEAAAERPGEAAVA, AKGEAAAERPGEAAVA] (Myristoyl-AKGEAAAERPGEAAVA-OH; C-terminus assumed) on HL-60 clone 15 cells?
[A] 18.1

###

System: HL-60 clone 15 cells
procedure.details: PMA-stimulated EPO release from HL-60 clone 15 cells
Format: cell-based, human
assay.conditions: 50 μM test peptide, two hour incubation with 100 nM PMA; HL-60 clone 15 cells
Where a SMILES comes first, the peptide text is derived from it. The star is where a group is joined. Myristoyl = CCCCCCCCCCCCCC(=O)*
Consider the following compounds; for each one, report its % Inhibition EPO.
Hi! Could you send only the number? It should be in %, unit omitted.

[Q] Any idea what % Inhibition EPO came out for CC(=O)N[C@@H](C)C(=O)N[C@@H](CCCCN)C(=O)NCC(=O)N[C@@H](CCC(=O)O)C(=O)O [Ac-AKGE, AKGE] (Ac-AKGE-OH; C-terminus assumed) on HL-60 clone 15 cells?
[A] 87.6

[Q] Also, CCCCCCCCCCCCCC(=O)N[C@@H](C)C(=O)N[C@@H](C)C(=O)N[C@@H](C)C(=O)N[C@@H](CCC(=O)O)C(=O)N[C@@H](CCCNC(=N)N)C(=O)N1CCC[C@H]1C(=O)NCC(=O)N[C@@H](CCC(=O)O)C(=O)N[C@@H](C)C(=O)N[C@@H](C)C(=O)N[C@H](C(=O)N[C@@H](C)C(=O)O)C(C)C [MA-AAAERPGEAAVA, AAAERPGEAAVA] (Myristoyl-AAAERPGEAAVA-OH; C-terminus assumed) please.
[A] 21.6

###

procedure.details: Qualitative solubility of peptides in 0.5 N saline, pH 6.5
Where a SMILES comes first, the peptide text is derived from it. The star is where a group is joined. Myristoyl = CCCCCCCCCCCCCC(=O)*
reported.property: solubility

[Q] Report solubility for CC(=O)N[C@@H](C)C(=O)N[C@@H](CCCCN)C(=O)NCC(=O)N[C@@H](CCC(=O)O)C(=O)O [Ac-AKGE, AKGE] (Ac-AKGE-OH; C-terminus assumed) please.
[A] > 200 mg/mL

[Q] Also, CCCCCCCCCCCCCC(=O)NCC(=O)N[C@@H](C)C(=O)N[C@@H](CCC(N)=O)C(=O)N[C@@H](Cc1ccccc1)C(=O)N[C@@H](CO)C(=O)N[C@@H](CCCCN)C(=O)N[C@H](C(=O)N[C@@H](CCCCN)C(=O)N[C@@H](C)C(=O)N[C@@H](CCCCN)C(=O)NCC(=O)N[C@@H](CCC(=O)O)C(=O)O)[C@@H](C)O [MA-GAQFSKTKAKGE, GAQFSKTKAKGE] (Myristoyl-GAQFSKTKAKGE-OH; C-terminus assumed) please.
[A] > 3 mg/mL

###

Tested on: HL-60 clone 15 cells
procedure.details: PMA-stimulated EPO release from HL-60 clone 15 cells
Format: cell-based, human
assay.conditions: 50 μM test peptide, two hour incubation with 100 nM PMA; HL-60 clone 15 cells
Protocol: Three types of human leukocyte cell lines, specifically the promyelocytic cell line HL-60 clone 15, the monocytic cell line U937, and the lymphocyte natural killer cell line NK-92 were purchased from American Type Culture Collection (ATCC; Rockville, MD). […] Viability of cells harvested for experiments was assessed by trypan blue exclusion and populations of cells with viability >95% were used. […]
Where a SMILES comes first, the peptide text is derived from it. The star is where a group is joined. Myristoyl = CCCCCCCCCCCCCC(=O)*
Consider the following compounds; for each one, report its % Inhibition EPO.
Write the numeric value and follow it with the unit.

[Q] Report % Inhibition EPO for CCCCCCCCCCCCCC(=O)N[C@@H](CCCNC(=N)N)C(=O)N1CCC[C@H]1C(=O)NCC(=O)N[C@@H](CCC(=O)O)C(=O)N[C@@H](C)C(=O)N[C@@H](C)C(=O)N[C@H](C(=O)N[C@@H](C)C(=O)O)C(C)C [MA-RPGEAAVA, RPGEAAVA] (Myristoyl-RPGEAAVA-OH; C-terminus assumed) please.
[A] 0%

[Q] Also, CCCCCCCCCCCCCC(=O)NCC(=O)N[C@@H](C)C(=O)N[C@@H](CCC(N)=O)C(=O)N[C@@H](Cc1ccccc1)C(=O)N[C@@H](CO)C(=O)N[C@@H](CCCCN)C(=O)N[C@H](C(=O)N[C@@H](C)C(=O)N[C@@H](C)C(=O)N[C@@H](CCCCN)C(=O)NCC(=O)N[C@@H](CCC(=O)O)C(=O)O)[C@@H](C)O [MA-GAQFSKTAAKGE, GAQFSKTAAKGE] (Myristoyl-GAQFSKTAAKGE-OH; C-terminus assumed) please.
[A] 25.2%

[Q] Also, CCCCCCCCCCCCCC(=O)NCC(=O)N[C@@H](C)C(=O)N[C@@H](CCC(N)=O)C(=O)N[C@@H](Cc1ccccc1)C(=O)N[C@@H](CO)C(=O)N[C@@H](CCCCN)C(=O)N[C@H](C(=O)N[C@@H](C)C(=O)N[C@@H](C)C(=O)N[C@@H](CCCCN)C(=O)O)[C@@H](C)O [MA-GAQFSKTAAK, GAQFSKTAAK] (Myristoyl-GAQFSKTAAK-OH; C-terminus assumed) please.
[A] 37.4%
